Origin of values: patent US8034810B2

Target: MMP1 (collagenase 1) (Homo sapiens)
Sequence (P03956 100-469): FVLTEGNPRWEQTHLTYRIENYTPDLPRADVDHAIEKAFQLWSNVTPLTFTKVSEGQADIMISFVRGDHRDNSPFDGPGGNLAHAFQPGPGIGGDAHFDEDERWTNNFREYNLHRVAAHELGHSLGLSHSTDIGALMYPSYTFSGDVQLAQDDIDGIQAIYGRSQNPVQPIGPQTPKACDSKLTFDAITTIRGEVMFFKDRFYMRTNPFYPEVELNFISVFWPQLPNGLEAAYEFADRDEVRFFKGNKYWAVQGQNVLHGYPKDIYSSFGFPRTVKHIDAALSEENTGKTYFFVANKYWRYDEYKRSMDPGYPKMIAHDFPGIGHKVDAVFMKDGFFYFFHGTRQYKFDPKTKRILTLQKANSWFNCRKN
Assay: In vitro inhibition of MMP1 (collagenase 1), fluorogenic peptide substrate
Conditions: APMA-activated recombinant human collagenase; substrate 10 μM; 37° C.
Protocol: The inhibitory activities of compounds of formula I on MT1-MMP, MMP1 (collagenase 1) and MMP2 (gelatinase A) can be determined as follows: […] C127 cells (ATCC-mouse mammary tumor cell line) are grown in Dulbecco's Modified Essential Medium supplemented with 10% heat inactivated fetal bovine serum and 1× antibiotic-antimycotic solution at 37° C. in a humidified CO2 incubator. […] Media from selected clones are analyzed for collagenase expression by an enzymatic assay. […]
Mark class 1 only when IC50 stays strictly below 3 µM. Values equal to the cut-off are class 0.

Does the reported IC50 of C=CCCOc1ccc(S(=O)(=O)N(CC(=O)NO)Cc2ccc(-n3ccnc3)cc2)cc1 [Example 80] stay below 3 µM?
class 1

Check if IC50 falls below 3 µM for COc1ccc(CN(CC(=O)NO)S(=O)(=O)c2ccc(OCCCCl)cc2)cc1 [Example 68] .
class 1

A record lists C=CCCOc1ccc(S(=O)(=O)N(CC(=O)NO)Cc2cccc(F)n2)cc1 [Example 83a] . Is its IC50 below 3 µM?
class 0

Lab log: compare recorded IC50 with 3 µM; is it strictly lower for C=CCCOc1ccc(S(=O)(=O)N(CC(=O)NO)Cc2ccc(N3CCCC3)cc2)cc1 [Example 84a] ?
class 0

Is the reported IC50 for C=CCCOc1ccc(S(=O)(=O)N(CC(=O)NO)Cc2ccc(-n3cncn3)cc2)cc1 [Example 79] strictly below 3 µM?
class 0
